Consider the following molecules and their measured Dmax (%) H1975 # 28 DTC readings.
- System: EGFR Del19/T790M/C797S (H1975-clone #28)
- Protocol Summary: EGFR degradation HTRF assay, H1975-clone #28 DTC cells
- Assay type: cell-based
- Cond: H1975 # 28 DTC cells; maximum percentage of inhibition (degradation)
Property Measured: Dmax (%) H1975 # 28 DTC

{"Molecule": "CCOc1cc(N2CCC(N3CCN(CCc4cc(F)c([C@H]5CCC(=O)NC5=O)c(F)c4)CC3)CC2)c(CC)cc1Nc1ncc(Br)c(Nc2ccc3nc(CC)c(F)cc3c2P(C)(C)=O)n1 [Example 588]", "Assay Result": "84.46%"}
{"Molecule": "CCc1cc(Nc2ncc(Br)c(Nc3ccc4nc(NC5CC5)ccc4c3P(C)(C)=O)n2)c(OC)cc1N1CCC(N2CCN(C(=O)[C@@H]3CCN(c4cc(F)c([C@H]5CCC(=O)NC5=O)c(F)c4)C3)CC2)CC1 [Example 652]", "Assay Result": "86.65%"}
{"Molecule": "COc1cc(N2CCC(N3CCN(C(=O)[C@@H]4CCN(c5cc(F)c([C@H]6CCC(=O)NC6=O)c(F)c5)C4)CC3)CC2)c(C)cc1Nc1ncc(Br)c(Nc2ccc3nc(C)c(F)cc3c2P(C)(C)=O)n1 [Example 732]", "Assay Result": "86.49%"}
{"Molecule": "CCOc1cc(N2CCC(N3CCN(CC4CN(c5cccc6c5oc(=O)n6C5CCC(=O)NC5=O)C4)CC3)CC2)c(CC)cc1Nc1ncc(Br)c(Nc2ccc3c(=O)n(CC)ncc3c2P(C)(C)=O)n1 (centres unmarked) [Example 645]", "Assay Result": "84.26%"}
{"Molecule": "CCOc1cc(N2CCC(N3CCN(CCc4cc(F)c([C@H]5CCC(=O)NC5=O)c(F)c4)CC3)CC2)c(CC)cc1Nc1ncc(Br)c(Nc2cc(F)c3nc(C)ccc3c2P(C)(C)=O)n1 [Example 534]", "Assay Result": "83.48%"}

* * *

Consider the following molecules and their measured Dmax readings.
- Assay System: EGFR L858R/T790M/C797S (BaF3-LTC cells) (Homo sapiens, UniProt P00533, C797S/L858R/T790M)
- Construct: expressed in transfected cells; host or cells: BaF3
- Sequence (P00533 25-1210 T790M/C797S/L858R): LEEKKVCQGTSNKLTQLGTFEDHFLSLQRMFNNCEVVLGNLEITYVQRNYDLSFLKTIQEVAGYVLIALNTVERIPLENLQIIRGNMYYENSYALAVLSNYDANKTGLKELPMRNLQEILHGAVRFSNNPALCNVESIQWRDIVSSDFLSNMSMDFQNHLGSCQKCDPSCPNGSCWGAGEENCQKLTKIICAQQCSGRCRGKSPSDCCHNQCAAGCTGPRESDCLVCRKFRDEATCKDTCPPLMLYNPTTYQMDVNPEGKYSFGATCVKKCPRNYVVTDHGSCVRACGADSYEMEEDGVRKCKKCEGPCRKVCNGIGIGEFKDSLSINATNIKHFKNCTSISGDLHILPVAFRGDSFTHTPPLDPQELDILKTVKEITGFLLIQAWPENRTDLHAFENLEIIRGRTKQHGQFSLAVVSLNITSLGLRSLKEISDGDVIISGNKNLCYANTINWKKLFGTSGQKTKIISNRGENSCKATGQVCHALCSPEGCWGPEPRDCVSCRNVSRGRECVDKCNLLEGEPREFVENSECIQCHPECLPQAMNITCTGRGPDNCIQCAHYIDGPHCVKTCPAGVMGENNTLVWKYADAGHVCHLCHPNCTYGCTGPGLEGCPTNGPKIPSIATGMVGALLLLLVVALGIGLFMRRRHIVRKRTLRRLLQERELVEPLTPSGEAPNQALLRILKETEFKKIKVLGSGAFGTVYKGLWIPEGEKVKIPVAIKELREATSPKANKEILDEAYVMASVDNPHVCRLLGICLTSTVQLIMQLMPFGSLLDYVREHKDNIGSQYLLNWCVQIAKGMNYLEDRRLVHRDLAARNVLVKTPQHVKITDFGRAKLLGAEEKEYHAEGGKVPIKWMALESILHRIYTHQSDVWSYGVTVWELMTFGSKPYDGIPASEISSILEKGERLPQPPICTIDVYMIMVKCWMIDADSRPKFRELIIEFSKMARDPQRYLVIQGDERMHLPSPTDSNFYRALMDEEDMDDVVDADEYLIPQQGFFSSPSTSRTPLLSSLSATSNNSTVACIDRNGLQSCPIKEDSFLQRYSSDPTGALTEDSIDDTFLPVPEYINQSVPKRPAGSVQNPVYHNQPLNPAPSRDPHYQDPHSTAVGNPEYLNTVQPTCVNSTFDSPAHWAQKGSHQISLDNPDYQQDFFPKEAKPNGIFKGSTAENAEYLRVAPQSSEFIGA
- Protocol Summary: EGFR degradation HTRF assay, BaF3-LTC cells
- Type: cell-based
- Cond: BaF3-LTC cells; maximum percentage of inhibition (degradation); read-out: Dmax (%) BaF3-LTC

{"Molecule": "CCOc1cc(N2CCC(N3CCN(C(=O)[C@@H]4CCN(c5cc(F)c([C@H]6CCC(=O)NC6=O)c(F)c5)C4)CC3)CC2)c(CC)cc1Nc1ncc(Br)c(Nc2cc(F)c3ncccc3c2P(C)(C)=O)n1", "Assay System": "EGFR L858R/T790M/C797S (BaF3-LTC cells) (Homo sapiens, UniProt P00533, C797S/L858R/T790M)", "Dmax, %": 94.9}
{"Molecule": "CCc1cc(Nc2ncc(Br)c(Nc3ccc4nc(NC5CC5)ccc4c3P(C)(C)=O)n2)c(OC)cc1N1CCC(N2CCN(CCc3cc(F)c([C@H]4CCC(=O)NC4=O)c(F)c3)CC2)CC1", "Assay System": "EGFR L858R/T790M/C797S (BaF3-LTC cells) (Homo sapiens, UniProt P00533, C797S/L858R/T790M)", "Dmax, %": 87.7}
{"Molecule": "CCOc1cc(N2CCC(N3CCN(C(=O)[C@@H]4CCN(c5cc(F)c([C@H]6CCC(=O)NC6=O)c(F)c5)C4)CC3)CC2)c(CC)cc1Nc1ncc(Br)c(Nc2ccc3c(=O)n(C)ncc3c2P(C)(C)=O)n1", "Assay System": "EGFR L858R/T790M/C797S (BaF3-LTC cells) (Homo sapiens, UniProt P00533, C797S/L858R/T790M)", "Dmax, %": 94.6}
{"Molecule": "CCOc1cc(N2CCC(N3CCN(CCc4ccc5c(c4)oc(=O)n5C4CCC(=O)NC4=O)CC3)CC2)c(CC)cc1Nc1ncc(Br)c(Nc2ccc3nc(C)ccc3c2P(C)(C)=O)n1 (stereo not shown)", "Assay System": "EGFR L858R/T790M/C797S (BaF3-LTC cells) (Homo sapiens, UniProt P00533, C797S/L858R/T790M)", "Dmax, %": 96.4}
{"Molecule": "COc1cc(N2CCC(N3CCN(C(=O)[C@H]4CCN(c5cc(F)c(C6CCC(=O)NC6=O)c(F)c5)C4)CC3)CC2)c(C)cc1Nc1ncc(Br)c(Nc2ccc3c(=O)n(C)ncc3c2P(C)(C)=O)n1 (stereo partly shown)", "Assay System": "EGFR L858R/T790M/C797S (BaF3-LTC cells) (Homo sapiens, UniProt P00533, C797S/L858R/T790M)", "Dmax, %": 85.2}
{"Molecule": "CCc1cc(Nc2ncc(Br)c(Nc3ccc4nc(C)sc4c3P(C)(C)=O)n2)c(OC)cc1N1CCC(N2CCN(C(=O)[C@@H]3CCN(c4cc(F)c([C@H]5CCC(=O)NC5=O)c(F)c4)C3)CC2)CC1", "Assay System": "EGFR L858R/T790M/C797S (BaF3-LTC cells) (Homo sapiens, UniProt P00533, C797S/L858R/T790M)", "Dmax, %": 95}
{"Molecule": "CCOc1cc(N2CCC(N3CCN(CCc4cc(F)c(F)c5c4oc(=O)n5C4CCC(=O)NC4=O)CC3)CC2)c(CC)cc1Nc1ncc(Br)c(Nc2ccc3nc(CC)ccc3c2P(C)(C)=O)n1 (stereo not shown)", "Assay System": "EGFR L858R/T790M/C797S (BaF3-LTC cells) (Homo sapiens, UniProt P00533, C797S/L858R/T790M)", "Dmax, %": 79.2}
{"Molecule": "CCOc1cc(N2CCC(N3CCN(CC4CN(c5cccc6c5oc(=O)n6C5CCC(=O)NC5=O)C4)CC3)CC2)c(CC)cc1Nc1ncc(Br)c(Nc2ccc3nc(CC)ccc3c2P(C)(C)=O)n1 (stereo not shown)", "Assay System": "EGFR L858R/T790M/C797S (BaF3-LTC cells) (Homo sapiens, UniProt P00533, C797S/L858R/T790M)", "Dmax, %": 86.6}
{"Molecule": "CCOc1cc(N2CCC(N3CCN(CCc4c(F)cc5c(oc(=O)n5C5CCC(=O)NC5=O)c4F)CC3)CC2)c(CC)cc1Nc1ncc(Br)c(Nc2ccc3nc(CC)ccc3c2P(C)(C)=O)n1 (stereo not shown)", "Assay System": "EGFR L858R/T790M/C797S (BaF3-LTC cells) (Homo sapiens, UniProt P00533, C797S/L858R/T790M)", "Dmax, %": 90.7}
{"Molecule": "CCOc1cc(N2CCC(N3CCN(CCCc4cc(F)cc5c4oc(=O)n5C4CCC(=O)NC4=O)CC3)CC2)c(CC)cc1Nc1ncc(Br)c(Nc2cc(F)c3nc(CC)ccc3c2P(C)(C)=O)n1 (stereo not shown)", "Assay System": "EGFR L858R/T790M/C797S (BaF3-LTC cells) (Homo sapiens, UniProt P00533, C797S/L858R/T790M)", "Dmax, %": 93.8}
{"Molecule": "CCc1cc(Nc2ncc(Br)c(Nc3ccc4c(=O)n(C5CC5)ncc4c3P(C)(C)=O)n2)c(OC)cc1N1CCC(N2CCN(CCc3cc(F)c(C4CCC(=O)NC4=O)c(F)c3)CC2)CC1 (stereo not shown)", "Assay System": "EGFR L858R/T790M/C797S (BaF3-LTC cells) (Homo sapiens, UniProt P00533, C797S/L858R/T790M)", "Dmax, %": 87.4}
{"Molecule": "CCOc1ccc2c(P(C)(C)=O)c(Nc3nc(Nc4cc(CC)c(N5CCC(N6CCN(C(=O)[C@@H]7CCN(c8cc(F)c([C@H]9CCC(=O)NC9=O)c(F)c8)C7)CC6)CC5)cc4OC)ncc3Br)ccc2n1", "Assay System": "EGFR L858R/T790M/C797S (BaF3-LTC cells) (Homo sapiens, UniProt P00533, C797S/L858R/T790M)", "Dmax, %": 94.3}
{"Molecule": "CCc1cc(Nc2ncc(Br)c(Nc3ccc4nc(C(C)(C)O)ccc4c3P(C)(C)=O)n2)c(OC)cc1N1CCC(N2CCN(C(=O)[C@@H]3CCN(c4cc(F)c(C5CCC(=O)NC5=O)c(F)c4)C3)CC2)CC1 (stereo partly shown)", "Assay System": "EGFR L858R/T790M/C797S (BaF3-LTC cells) (Homo sapiens, UniProt P00533, C797S/L858R/T790M)", "Dmax, %": 95.1}
{"Molecule": "CCOc1cc(N2CCC(N3CCN(CCc4ccc5c(oc(=O)n5C5CCC(=O)NC5=O)c4Cl)CC3)CC2)c(CC)cc1Nc1ncc(Br)c(Nc2ccc3nc(CC)ccc3c2P(C)(C)=O)n1 (stereo not shown)", "Assay System": "EGFR L858R/T790M/C797S (BaF3-LTC cells) (Homo sapiens, UniProt P00533, C797S/L858R/T790M)", "Dmax, %": 95.4}
{"Molecule": "CCOc1cc(N2CCC(N3CCN(CC4CCN(c5cccc6c5oc(=O)n6C5CCC(=O)NC5=O)CC4)CC3)CC2)c(CC)cc1Nc1ncc(Br)c(Nc2ccc3nc(CC)ccc3c2P(C)(C)=O)n1 (stereo not shown)", "Assay System": "EGFR L858R/T790M/C797S (BaF3-LTC cells) (Homo sapiens, UniProt P00533, C797S/L858R/T790M)", "Dmax, %": 88.5}
{"Molecule": "CCOc1cc(N2CCC(N3CCN(CCc4cc(F)c([C@H]5CCC(=O)NC5=O)c(F)c4)[C@H](CO)C3)CC2)c(CC)cc1Nc1ncc(Br)c(Nc2ccc3nc(CC)ccc3c2P(C)(C)=O)n1", "Assay System": "EGFR L858R/T790M/C797S (BaF3-LTC cells) (Homo sapiens, UniProt P00533, C797S/L858R/T790M)", "Dmax, %": 87.7}
{"Molecule": "CCOc1cc(N2CCC(N3CCN(CCc4cc5oc(=O)n(C6CCC(=O)NC6=O)c5cc4F)CC3)CC2)c(CC)cc1Nc1ncc(Br)c(Nc2ccc3c(=O)n(CC)ncc3c2P(C)(C)=O)n1 (stereo not shown)", "Assay System": "EGFR L858R/T790M/C797S (BaF3-LTC cells) (Homo sapiens, UniProt P00533, C797S/L858R/T790M)", "Dmax, %": 92.3}
{"Molecule": "CCOc1cc(N2CCC(N3CCN(CCc4cc(F)c(F)c5c4n(CC)c(=O)n5C4CCC(=O)NC4=O)CC3)CC2)c(CC)cc1Nc1ncc(Br)c(Nc2ccc3c(=O)n(CC)ncc3c2P(C)(C)=O)n1 (stereo not shown)", "Assay System": "EGFR L858R/T790M/C797S (BaF3-LTC cells) (Homo sapiens, UniProt P00533, C797S/L858R/T790M)", "Dmax, %": 79.7}
{"Molecule": "CCOc1cc(N2CCC(N3CCN(C(=O)CN4CCN(c5cc(F)c([C@H]6CCC(=O)NC6=O)c(F)c5)CC4)CC3)CC2)c(CC)cc1Nc1ncc(Br)c(Nc2ccc3c(=O)n(CC)ncc3c2P(C)(C)=O)n1", "Assay System": "EGFR L858R/T790M/C797S (BaF3-LTC cells) (Homo sapiens, UniProt P00533, C797S/L858R/T790M)", "Dmax, %": 94.3}
